System: primary human hepatic stellate cells (donor 1)
experimental-details: scaled lipid accumulation score (0 = DMSO-like, 1 = nortriptyline-like); higher = stronger HSC inactivation (lipid re-accumulation), active = hit call of the paper
condition-description: library stock concentration: 100 uM; 48 h
Out of some 5,800 compounds screened, about 620 (11%) showed activity. The entries come from a sample that favours actives as a whole.
The compounds listed here are annotated with their scaled lipid accumulation score.

Item under review: CCCCC/C=C\C/C=C\C/C=C\C=C\[C@@H](O)CCCC(=O)O . Reported scaled lipid accumulation score?
≤ -0.021 (inactive)

Suppose we examine the compound CCCCC/C=C\C[C@@H](O)/C=C/C=C/C=C\[C@@H](O)CCCC(=O)O ; what scaled lipid accumulation score value has been reported?
≤ -0.021 (inactive)

====

Test system: primary human hepatic stellate cells (donor 1)
experimental-details: scaled lipid accumulation score (0 = DMSO-like, 1 = nortriptyline-like); higher = stronger HSC inactivation (lipid re-accumulation), active = hit call of the paper
condition-description: library stock concentration: 10 mM; 48 h
Counter-ions that a name gives are not always drawn. The whole screen tested about 5,800 compounds, of which about 620 (11%) showed activity.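 Rule for the calls: active = score above a cut-off or among the top three wells of a plate; in these data no inactive exceeds 0.85.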 Only a selection was taken, and actives are over-represented in it overall.
Reply using exactly one outcome from active, inactive

{"molecule": "Cc1nc2ccc(NC(=O)Nc3ccnc4cccnc34)cc2o1", "answer-label": "inactive"}
{"molecule": "CS(=O)(=O)CCNCc1ccc(-c2ccc3ncnc(Nc4ccc(OCc5cccc(F)c5)c(Cl)c4)c3c2)o1", "answer-label": "inactive"}
{"molecule": "CNCCC=C1c2ccccc2CCc2ccccc21 [Nortriptyline]", "answer-label": "inactive"}

// param item: C[C@@H]1COC(Nc2ccc3ncnc(Nc4ccc(OCc5nccs5)c(Cl)c4)c3c2)=N1 [Varlitinib] ; yields the recorded call
inactive

// outcome(item) with item = CC(=O)Oc1c(C)cccc1C(=O)O
inactive

Dear all, I need the recorded test outcome for COc1cccc(OC)c1OCCNCC1COc2ccccc2O1 (centres undefined) [WB-4101 hydrochloride] , thank you.
inactive

Entry CC(C)(O)CC(=O)NCCn1ccc2ncnc(Nc3ccc(Oc4cccc(C(F)(F)F)c4)c(Cl)c3)c21 : call = ?
inactive

Called result for Cc1cc(Nc2ncnc3ccc(-c4ccc(CNCCS(C)(=O)=O)o4)cc23)ccc1Oc1ccn2ncnc2c1 [HER2-Inhibitor-1]
active

Identify the outcome logged in this assay for the molecule shown: CNCCC=C1c2ccccc2CCc2ccccc21.Cl
active

====

System: primary human hepatic stellate cells (donor 1)
experimental-details: scaled lipid accumulation score (0 = DMSO-like, 1 = nortriptyline-like); higher = stronger HSC inactivation (lipid re-accumulation), active = hit call of the paper
condition-description: library stock concentration: 10 mM; 48 h
Counter-ions that a name gives are not always drawn. Hit rate of the full screen: of about 5,800 compounds, about 620 (11%) showed activity.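 Rule for the calls: active = score above a cut-off or among the top three wells of a plate; in these data no inactive exceeds 0.85.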 Shown is part of a subset that was picked to be rich in actives.
Your reply should match one of these outcome classes. active, inactive

Solved entries (count: 2):
{"molecule": "COC1=C(OC)C(=O)c2ccccc2C1=O", "answer-label": "inactive"}
{"molecule": "COc1cc(OC)cc(-c2ccc3ncc4ccc(=O)n(-c5ccc(N6CCNCC6)c(C(F)(F)F)c5)c4c3c2)c1", "answer-label": "inactive"}

Given Cc1cccc(C#Cc2ccccc2)n1 , state the outcome it received in this test.
inactive

How was O=C(O)CCC(=O)O.O=C(O[C@H]1CN2CCC1CC2)N1CCc2ccccc2[C@@H]1c1ccccc1 [Solifenacin succinate] classified in this test?
active

Record request — test call for CN1CCC(=C2c3ccccc3CC(=O)c3sccc32)CC1.O=C(O)/C=C/C(=O)O [Ketotifen fumarate]
active

What was the test verdict on O=C(/C=C\n1cnc(-c2cc(C(F)(F)F)cc(C(F)(F)F)c2)n1)NNc1cnccn1 ?
inactive

# lookup: test call for CN(C)C/C=C(/c1ccc(Br)cc1)c1cccnc1 [Zimelidine dihydrochloride]
inactive

Please let me know the test result on file for CNc1cc(OC)c(C(=O)NC2CCN(Cc3ccccc3)C2C)cc1Cl (stereo not drawn) [Nemonapride] .
inactive

For CN1CCC(=C2c3ccccc3CCc3sccc32)CC1.O=C(O)/C=C\C(=O)O , which call appears in the assay record?
active

Per the records of this test, what outcome belongs to CN1CCN(CCCN2c3ccccc3Sc3ccc(C(F)(F)F)cc32)CC1 [Trifluoperazine 2HCl] ?
inactive

# outcome recorded in this test, key = CC1OC2(CS1)CN1CCC2CC1 (stereo not drawn) [Cevimeline hydrochloride]
inactive

====

Tested on: primary human hepatic stellate cells (donor 1)
experimental-details: scaled lipid accumulation score (0 = DMSO-like, 1 = nortriptyline-like); higher = stronger HSC inactivation (lipid re-accumulation), active = hit call of the paper
condition-description: library stock concentration: 2.6 mM; 48 h
Hit rate of the full screen: of about 5,800 compounds, about 620 (11%) showed activity.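 The calls were made as follows: active = score above a cut-off or among the top three wells of a plate; in these data no inactive exceeds 0.85.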 For the sample, actives were picked, then their nearest neighbours and some compounds at random.
Tick one outcome: active, inactive

Worked examples, 2 compounds total:
{"compound": "OCCOCCN1CCN(C(c2ccccc2)c2ccc(Cl)cc2)CC1 (centres undefined) [Hydroxyzine pamoate]", "answer-label": "inactive"}
{"compound": "C[C@H]1O[C@@H](O[C@H]2[C@@H](O)C[C@H](O[C@H]3[C@@H](O)C[C@H](O[C@H]4CC[C@]5(C)C6CC[C@]7(C)[C@@H](C8=CC(=O)OC8)CC[C@]7(O)C6CC[C@@H]5C4)O[C@@H]3C)O[C@@H]2C)C[C@H](O)[C@@H]1O (some centres undefined)", "answer-label": "active"}

// outcome(item) with item = N[C@@H](Cc1cc(I)c(Oc2cc(I)c(O)c(I)c2)c(I)c1)C(=O)O
inactive

For C[C@H]1O[C@@H](O[C@H]2[C@@H](O)C[C@H](O[C@H]3[C@@H](O)C[C@H](O[C@H]4CC[C@]5(C)C6C[C@@H](O)[C@]7(C)[C@@H](C8=CC(=O)OC8)CC[C@]7(O)C6CC[C@@H]5C4)O[C@@H]3C)O[C@@H]2C)C[C@H](O)[C@@H]1O (some centres undefined) , what call appears in the results of this test?
active

====

Tested on: primary human hepatic stellate cells (donor 1)
experimental-details: scaled lipid accumulation score (0 = DMSO-like, 1 = nortriptyline-like); higher = stronger HSC inactivation (lipid re-accumulation), active = hit call of the paper
condition-description: library stock concentration: 10 mM; 48 h
Out of some 5,800 compounds screened, about 620 (11%) showed activity. The list comes from a sample in which actives are over-represented; it also holds close analogues and randomly drawn compounds.
measure: scaled lipid accumulation score

{"compound": "CC1=C(/C=C/C(=C/C=C/C(C)=C/C(=O)O)c2ccc(C)cc2)C(C)(C)CCC1", "target-entity": "primary human hepatic stellate cells (donor 1)", "scaled lipid accumulation score": "≤ -0.001 (inactive)"}

// scaled lipid accumulation score lookup, key: C[C@@H]1O[C@@H]1P(=O)(O)O [Fosfomycin]
≤ 0 (inactive)

Fill in: scaled lipid accumulation score of CC(C)(C)OC(=O)N[C@H]1CCCCC/C=C\[C@@H]2C[C@@]2(C(=O)NS(=O)(=O)C2CC2)NC(=O)[C@@H]2C[C@@H](OC(=O)N3Cc4cccc(F)c4C3)CN2C1=O is ___
≤ 0 (inactive)

Please look up its scaled lipid accumulation score: C[C@@H]1O[C@@H]1P(=O)(O)O [Phosphomycin disodium]
≤ -0.055 (inactive)

====

Test system: primary human hepatic stellate cells (donor 1)
experimental-details: scaled lipid accumulation score (0 = DMSO-like, 1 = nortriptyline-like); higher = stronger HSC inactivation (lipid re-accumulation), active = hit call of the paper
condition-description: library stock concentration: 1 mM; 48 h
Out of some 5,800 compounds screened, about 620 (11%) showed activity. Shown is part of a subset that was picked to be rich in actives.
measure: scaled lipid accumulation score

Example entries begin here.
{"compound": "CCCC[C@H](C)C[C@H](O)/C=C/[C@H]1[C@H](O)CC(=O)[C@@H]1CCCCC(CC(=O)O)OC (stereo not given in full)", "target-entity": "primary human hepatic stellate cells (donor 1)", "scaled lipid accumulation score": "0.012 (inactive)"}
{"compound": "COc1ccc(/C=C/c2cc(Cl)cc(Cl)c2)cc1", "target-entity": "primary human hepatic stellate cells (donor 1)", "scaled lipid accumulation score": "≤ 0 (inactive)"}
{"compound": "CCCCC/C=C/C/C=C/C/C=C/C/C=C/CCCC(=O)Oc1ccc2ccc(=O)oc2c1 [7-hydroxycoumarinyl Arachidonate]", "target-entity": "primary human hepatic stellate cells (donor 1)", "scaled lipid accumulation score": "≤ 0 (inactive)"}
{"compound": "CCCCCCCCCCCCCCCC(=O)NCCS(=O)(=O)O", "target-entity": "primary human hepatic stellate cells (donor 1)", "scaled lipid accumulation score": "≤ 0 (inactive)"}
{"compound": "CCCCCCC(=O)SC[C@H](COP(=O)([O-])OCC[N+](C)(C)C)SC(=O)CCCCCC", "target-entity": "primary human hepatic stellate cells (donor 1)", "scaled lipid accumulation score": "≤ 0 (inactive)"}
{"compound": "CCCCC[C@H](O)/C=C/[C@H]1[C@H](O)CC(=O)[C@@H]1C/C=C\\CCCC(=O)OC [Prostaglandin E2 methyl ester]", "target-entity": "primary human hepatic stellate cells (donor 1)", "scaled lipid accumulation score": "≤ 0 (inactive)"}
{"compound": "CCCCC[C@@](C)(O)/C=C/[C@H]1C=CC(=O)[C@@H]1C/C=C\\CCCC(=O)O [15(R)-15-methyl Prostaglandin A2]", "target-entity": "primary human hepatic stellate cells (donor 1)", "scaled lipid accumulation score": "≤ 0 (inactive)"}
{"compound": "CCCCC1C(=O)CCC2C(CCCCCCC(=O)O)C(=O)CC12 (stereo not given) [Bicyclo Prostaglandin E1]", "target-entity": "primary human hepatic stellate cells (donor 1)", "scaled lipid accumulation score": "≤ 0 (inactive)"}

Notebook: pull reported scaled lipid accumulation score for primary human hepatic stellate cells (donor 1), entry CCCCC[C@H](O)/C=C/[C@@H]1[C@@H](C/C=C\CCCC(=O)O)[C@H](O)C[C@H]1O [Prostaglandin F2.beta.]
≤ 0 (inactive)

Quick check: scaled lipid accumulation score on primary human hepatic stellate cells (donor 1), item CCCCC/C=C\C/C=C\CCCCCCCC(=O)OCC(O)CO (stereo not given) ?
≤ 0 (inactive)

Can you look up scaled lipid accumulation score on primary human hepatic stellate cells (donor 1) for Cc1c(C(=O)c2ccccc2)c(N)c(-c2ccccc2)n1Cc1ccc(Cl)cc1 ?
≤ 0 (inactive)

Entry CCCCC[C@](C)(O)/C=C/[C@H]1[C@H](O)CC(=O)[C@@H]1C/C=C\CCCC(=O)O [15(S)-15-methyl Prostaglandin E2] , system primary human hepatic stellate cells (donor 1): what scaled lipid accumulation score was measured?
≤ 0 (inactive)

Provide the documented scaled lipid accumulation score with primary human hepatic stellate cells (donor 1) as the system for CCCCCCCC/C=C\CCCCCCCCOC[C@H](COP(=O)([O-])OCC[N+](C)(C)C)OC(C)=O
≤ -0.018 (inactive)

// map CCCCC[C@H](O)/C=C/[C@@H]1[C@@H](CCCCCCC(=O)O)[C@H](O)C[C@@H]1O to recorded scaled lipid accumulation score (system: primary human hepatic stellate cells (donor 1))
≤ 0 (inactive)

Request: scaled lipid accumulation score, test system primary human hepatic stellate cells (donor 1), entry CCCCCC(=O)/C=C/[C@H]1[C@H](O)CC(=O)[C@@H]1C/C=C\CCCC(=O)O [15-keto Prostaglandin E2]
≤ 0 (inactive)

Provenance of the data: the supplement of paper PMC9135407
